- target-under-test: human CLDN18.2 (human)
- test-summary: cell-based or functional assay
measurement-kind: ADCC EC50, PBMC effector cells, NUGC-4 target cells

Recorded ADCC EC50, PBMC effector cells, NUGC-4 target cells of chimeric antibody xi22F12 (antibody, human IgG1, kappa, V domains shown, Mouse variable regions on human IgG1/kappa; defucosylated, expressed in FUT8-knockout CHO-S cells; also called chimeric 22F12) VH: QVQLKESGPGLVAPSQSLSITCTVSGFSLTSYGVYWVRQPPGKGLEWLGVIWAGGSTNYNSALMSRLSINKDNSKSQVFLKMNSLQTDDTAMYYCARDRGRLLSMDYWGQGTSVTVSS VL: DIVMTQSPSSLSVSAGEKVTMSCRSSQSLLNSGNQKNYLAWYQQKPGQPPKLLIYGASTRESGVPDRFTGSGSGTDFTLTIGSVQAEDLAVYYCQNVHFFPFTFGSGTKLEIKR , please.
680 pM

Cited source for all entries: patent US20240409629A1
